# Test: Tanguay_ZF_120hpf_PIG_legacy: (Legacy) Oregon State University Tanguay Lab 120 Hour Post-fertilization zebrafish Assay for Pigmentation Malformation (AID 2283650);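 also: dechorionated Tropical 5D zebrafish embryos exposed singly from 6 to 120 hpf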
Records with an inconclusive call do not appear. Active and inactive are the calls of the source. The calls were made as follows: active = hit-call score of the fitted dose curve at least 0.9, where 1 is the maximum; inconclusive = response in the unintended direction; inactive = score below 0.9.
Readout: outcome

The examples below pair each entry with its known result.
O=c1ccc(=O)[nH][nH]1 = inactive
CCNc1nc(Cl)nc(NC(C)(C)C#N)n1 = inactive
C[N+]1(C)CCCCC1 = inactive
CCOP(=S)(OCC)Oc1ccc2c(C)c(Cl)c(=O)oc2c1 = inactive
CNC(=O)Oc1cccc2c1OC(C)(C)O2 = inactive
CCCOCC(=Nc1ccc(Cl)cc1C(F)(F)F)n1ccnc1 = inactive
C=C(C)[C@H]1Cc2c(ccc3c2O[C@@H]2COc4cc(OC)c(OC)cc4[C@@H]2C3=O)O1 = inactive
CCc1cnc(C2=NC(C)(C(C)C)C(=O)N2)c(C(=O)O)c1 (stereo not given) = inactive
CCC(=O)Nc1ccc(Cl)c(Cl)c1 = inactive
CC(=NC#N)N(C)Cc1ccc(Cl)nc1 = inactive

Prompt: Indicate its recorded outcome; the compound in question is CC(COc1ccc(Oc2ccccc2)cc1)Oc1ccccn1 (stereo not given)
Completion: inactive

Prompt: Answer with the recorded outcome of S=C1NCCN1 only.
Completion: inactive

Prompt: Supply reported outcome belonging to this compound: C#CCC1=C(C)C(OC(=O)C2C(C=C(C)C)C2(C)C)CC1=O (stereo not given)
Completion: inactive
